Known Compatibility of a selection of compounds
experiment: Compatibility (water value method); format: physicochemical; conditions: 2.5 g plasticizer and 25 g acetone titrated with deionized water until turbidity; Table 5
quantity_name: Compatibility (mL)

>>> print(df.to_string())
                                   compound  quantity_name   u  reported_result
0  CCCCOC(=O)C=C(CC(=O)OCCCC)C(=O)OCCCC [Example 23, tributyl aconitate]  Compatibility  mL             13.1
1  CCCCOC(=O)C=C(CC(=O)OCCCC)C(=O)OCCCC [Example 19, tributyl aconitate]  Compatibility  mL             16.7
2  CCCCOC(=O)C=C(CC(=O)OCCCC)C(=O)OCCCC [Example 25, tributyl aconitate]  Compatibility  mL             12.7
3  CCCCOC(=O)C=C(CC(=O)OCCCC)C(=O)OCCCC [Example 28, tributyl aconitate]  Compatibility  mL             14.4

// data source = patent EP4715056A1
